test system: LNCaP tumor-bearing male CB-17 SCID mice; assay: Biodistribution studies 24 h p.i.; settings: mean
observation_type: uptake in adrenals (% iD/g)
Give just the numeric value; % iD/g need not be written.

Problem: Please report the recorded uptake in adrenals for CC(C)(C)[Si](F)(c1ccc(C(=O)NC[C@@H](NC(=O)[C@@H](CCCNC(N)=O)NC(=O)CC[C@H](C(=O)O)N2CCN(CC(=O)O)CCN(CC(=O)O)CCN(CC(=O)O)CC2)C(=O)NCCCCCC(=O)NCCC[C@@H](NC(=O)CC[C@H](NC(=O)N[C@@H](CCC(=O)O)C(=O)O)C(=O)O)C(=O)O)cc1)C(C)(C)C [Compound 2C015] .
Result: 0.1013

Problem: Recorded uptake in adrenals of CC(C)(C)[Si](F)(c1ccc(C(=O)NCC(NC(=O)CCC(C(=O)O)N2CCN(CC(=O)O)CCN(CC(=O)O)CCN(CC(=O)O)CC2)C(=O)NC(CN)C(=O)NCCC(=O)NCCC(=O)NCCCC(NC(=O)CCC(NC(=O)NC(CCC(=O)O)C(=O)O)C(=O)O)C(=O)O)cc1)C(C)(C)C (stereo not shown) [Compound 2C011] , please.
Result: 0.1488

Problem: Given the entry CC(C)(C)[Si](F)(c1ccc(C(=O)NC[C@@H](NC(=O)[C@@H](CCCNC(N)=O)NC(=O)CC[C@@H](C(=O)O)N2CCN(CC(=O)O)CCN(CC(=O)O)CCN(CC(=O)O)CC2)C(=O)NCCCCCC(=O)NCCC[C@@H](NC(=O)CC[C@H](NC(=O)N[C@@H](CCC(=O)O)C(=O)O)C(=O)O)C(=O)O)cc1)C(C)(C)C [Compound 2C014] , report its measured uptake in adrenals.
Result: 0.1473

Problem: # get_value(readout='uptake in adrenals', item= CC(C)(C)[Si](F)(c1ccc(C(=O)NC[C@@H](NC(=O)CN2CCN(CC(=O)O)CCN(CC(=O)O)CCN(CC(=O)O)CC2)C(=O)N[C@H](CO)C(=O)NCCC(=O)NCCC(=O)NCCC[C@@H](NC(=O)CC[C@H](NC(=O)N[C@@H](CCC(=O)O)C(=O)O)C(=O)O)C(=O)O)cc1)C(C)(C)C [Compound 2C013] )
Result: 0.0618
